# Test system: spinal nerve ligation model
# measurement protocol: Test of spinal nerve ligation model (von Frey hair test)
# Format: in vivo, rat
# applied conditions: 0.3 mg/kg oral, 2 hours before evaluation; 50% withdrawal response threshold; pseudo-operation group = 100%, operated solvent group = 0%; SD rat; read-out: Improvement rate % (dose)
What inhibition in vivo at 0.3 mg/kg was measured for each of the following?
Give bare numbers, in %.

Guide cases for inhibition in vivo at 0.3 mg/kg, answers given:
In [3]: df
Out[3]:
                                   compound                  measured_on                   assay_endpoint  value_unit  number
0  Cn1c(-c2ccccc2F)nnc1C(C)(C)Oc1c(F)cc(F)cc1F [Compound 6]  spinal nerve ligation model  inhibition in vivo at 0.3 mg/kg           %      52
1  Cn1c(-c2ccc(C(N)=O)cc2F)nnc1C(C)(C)Oc1c(F)cc(Cl)cc1F [Compound 10]  spinal nerve ligation model  inhibition in vivo at 0.3 mg/kg           %      81
2  CC(C)(Oc1ccc(F)cc1F)c1nnc(-c2ccc(C(N)=O)cc2Cl)n1C1CC1 [Compound 14]  spinal nerve ligation model  inhibition in vivo at 0.3 mg/kg           %      73

Dear reader, for each entry below, please note its inhibition in vivo at 0.3 mg/kg.
1. Cn1c(-c2ccccc2Cl)nnc1C(C)(C)Oc1c(F)cc(F)cc1F [Compound 3]
2. CC(C)(Oc1ccc(F)cc1F)c1nnc(-c2ccc(C(N)=O)cc2F)n1C1CC1 [Compound 11]
3. CC(C)n1c(-c2ccc(C(N)=O)cc2)nnc1C(C)(C)Oc1c(F)cc(F)cc1F [Compound 9]
4. Cn1c(-c2ccc(F)cc2Br)nnc1C(C)(C)Oc1c(F)cc(F)cc1F [Compound 1]
5. Cn1c(-c2ccc(F)cc2Cl)nnc1C(C)(C)Oc1c(F)cc(Cl)cc1F [Compound 5]

62
82
78
71
65

Values from patent US9765040B2
